B1: LINE1-mini (parent)
chain: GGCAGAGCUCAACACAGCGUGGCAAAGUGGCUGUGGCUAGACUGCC

Variants of: B1
Experiment: self-cleavage, relative activity (ratio to wild type); higher = more cleavage; in vitro, sequencing; the parent is a self-cleaving ribozyme
Parameter: self-cleavage
The answer should be written as a number, with no unit following it.

Study these solved cases before continuing.
Mutation name | self-cleavage
A12G C23G | 0.05
G22A C31A | 0.2
C8G | 0.13

Value of measured self-cleavage for the entry G30U C45G : 0.29

Quick note, self-cleavage for C3A A16C landed at 0.12

// self-cleavage lookup, variant = C42U U43A , result: 0.12

Lab book: self-cleavage of A11G C31A noted as 0.02

The variant listed as G21U A39G has a reported self-cleavage of 0.08

The recorded self-cleavage for U32G G40C is 0.07

In plain terms, C15A G33U has a documented self-cleavage of 1.81

A16C has a reported self-cleavage of 0.11

Looking up U32A C37G , I see its self-cleavage listed as 0.08

The value of self-cleavage measured for the variant U32G G35A turned out to be 0.09

Measured self-cleavage, G5C U34C : 0.06

Reported self-cleavage for G5U C8G was 0.14

Short answer for U28G U32C : self-cleavage was 0.27

self-cleavage recorded for this variant, C13G G40A , is 0.13
